Values from the supplement of paper PMC8007513

Quick reference: growth yield of the listed items.
# Tested on: Trichoderma virens ATCC 9645
# assay_procedure: growth yield (OD600) relative to untreated control; higher = less growth inhibition
# reported_conditions: compound concentration: 100 uM; 72 h
Counter-ions that a name gives are not always drawn. Hit rate of the full screen: of about 1,300 compounds, about 75 (6%) showed an effect of 50% or more. For the sample, strong results were picked, then their nearest neighbours and some compounds at random.

- molecule: "CN(C/C=C/c1ccccc1)Cc1cccc2ccccc12 [Naftifine hydrochloride]"
  unit_symbol: "%"
  growth yield: 55.5
- molecule: "CN(Cc1ccc(C(C)(C)C)cc1)Cc1cccc2ccccc12 [Butenafine Hydrochloride]"
  unit_symbol: "%"
  growth yield: 1.99
- molecule: "CC(C)(C)NC(=O)[C@H]1CC[C@H]2[C@@H]3CC[C@H]4NC(=O)C=C[C@]4(C)[C@H]3CC[C@]12C [Finasteride]"
  unit_symbol: "%"
  growth yield: 81.1
- molecule: "CCCCC(CC)CN1CN(CC(CC)CCCC)CC(C)(N)C1 (centres undefined)"
  unit_symbol: "%"
  growth yield: 118
- molecule: "CC(=O)N(CC(C)C(=O)O)c1c(I)cc(I)c(N)c1I (centres undefined)"
  unit_symbol: "%"
  growth yield: 104
- molecule: "COc1ccc2[nH]c([S+]([O-])Cc3ncc(C)c(OC)c3C)nc2n1 (centres undefined)"
  unit_symbol: "%"
  growth yield: 102
- molecule: "c1ccc2c(CC3=NCCN3)cccc2c1 [Naphazoline hydrochloride]"
  unit_symbol: "%"
  growth yield: 100
- molecule: "CN(C/C=C/C#CC(C)(C)C)Cc1cccc2ccccc12"
  unit_symbol: "%"
  growth yield: 2.52
- molecule: "C#CCN(C)Cc1ccccc1 [Pargyline hydrochloride]"
  unit_symbol: "%"
  growth yield: 107

###

# Test system: Trichoderma virens ATCC 9645
# assay_procedure: growth yield (OD600) relative to untreated control; higher = less growth inhibition
# reported_conditions: compound concentration: 100 uM; 40 h
Structures can show the parent of a compound that is named as a salt. About 75 (6%) of roughly 1,300 compounds showed an effect of 50% or more. The sample holds strong results, similar compounds and a random draw of the others, so the mix is not that of the screen.
assay_endpoint: growth yield (%)

- molecule: "CN(C)CC/C=C1/c2ccccc2Sc2ccc(Cl)cc21 [Chlorprothixene hydrochloride]"
  assay_endpoint: "growth yield"
  quantitative_result: 70.5
- molecule: "CCCCCCCCCCCCCCCC[N+](C)(C)CCN(Cc1ccc(OC)cc1)c1ncccn1 [Thonzonium bromide]"
  assay_endpoint: "growth yield"
  quantitative_result: 0
- molecule: "COc1ccc2[nH]cc(CCNC(C)=O)c2c1 [Melatonin]"
  assay_endpoint: "growth yield"
  quantitative_result: 101
- molecule: "OCCOCCN1CCN(C2=Nc3ccccc3Sc3ccccc32)CC1 [Quetiapine hemifumarate]"
  assay_endpoint: "growth yield"
  quantitative_result: 108
- molecule: "CN(C)CCN(Cc1ccc(Cl)cc1)c1ccccn1 [Chloropyramine hydrochloride]"
  assay_endpoint: "growth yield"
  quantitative_result: 98.8

###

# Tested on: Trichoderma virens ATCC 9645
# assay_procedure: growth yield (OD600) relative to untreated control; higher = less growth inhibition
# reported_conditions: compound concentration: 100 uM; 40 h
Where a name gives a salt, the structure may show the parent alone. Out of some 1,300 compounds screened, about 75 (6%) showed an effect of 50% or more. What follows is part of a selection rich in strong results, with near analogues and random picks from the rest.
Quick reference: growth yield of the listed items.
assay_endpoint: growth yield (%)

- molecule: "COc1ccc(C(=O)c2ccccc2)c(O)c1"
  quantitative_result: 53.8
- molecule: "N=C(N)N1CCc2ccccc2C1 [Debrisoquin sulfate]"
  quantitative_result: 97.5
- molecule: "CC(C)(C(=O)c1cccnc1)c1cccnc1"
  quantitative_result: 91
- molecule: "CN(C)CCCN1c2ccccc2Sc2ccccc21 [Promazine hydrochloride]"
  quantitative_result: 91.3
- molecule: "CC(=O)c1ccc2c(c1)N(CCCN1CCC(CCO)CC1)c1ccccc1S2"
  quantitative_result: 124

###

# Tested on: Trichoderma virens ATCC 9645
# assay_procedure: growth yield (OD600) relative to untreated control; higher = less growth inhibition
# reported_conditions: compound concentration: 100 uM; 72 h
Structures can show the parent of a compound that is named as a salt. The whole screen tested about 1,300 compounds, of which about 75 (6%) showed an effect of 50% or more. The sample as a whole holds a higher share of strong results than the screen did.
assay_endpoint: growth yield (%)

- compound: "CO[C@H]1C[C@H](O[C@H]2[C@H](C)[C@@H](O[C@@H]3O[C@H](C)C[C@H](N(C)C)[C@H]3OC(C)=O)[C@@H](C)C[C@@]3(CO3)C(=O)[C@H](C)[C@@H](OC(C)=O)[C@@H](C)[C@@H](C)OC(=O)[C@@H]2C)O[C@@H](C)[C@@H]1OC(C)=O"
  assay_endpoint: "growth yield"
  unit_symbol: "%"
  quantitative_result: 98.4
- compound: "CC(C)[C@H](N)C(=O)OCCOCn1cnc2c(=O)nc(N)[nH]c21 [Valacyclovir hydrochloride]"
  assay_endpoint: "growth yield"
  unit_symbol: "%"
  quantitative_result: 103
- compound: "Cc1ccc2c(c1)c1c3n2CCNC3CCC1 (stereo unspecified) [Pirlindole mesylate]"
  assay_endpoint: "growth yield"
  unit_symbol: "%"
  quantitative_result: 104
- compound: "O=C(NCC(O)CO)c1c(I)c(C(=O)NCC(O)CO)c(I)c(N(CCO)C(=O)CO)c1I (stereo unspecified)"
  assay_endpoint: "growth yield"
  unit_symbol: "%"
  quantitative_result: 98.1
- compound: "Cc1cc(NS(=O)(=O)c2ccc(N)cc2)no1"
  assay_endpoint: "growth yield"
  unit_symbol: "%"
  quantitative_result: 82.9
- compound: "Cc1ccccc1OCC(O)CO (stereo unspecified)"
  assay_endpoint: "growth yield"
  unit_symbol: "%"
  quantitative_result: 99.5
- compound: "COC(=O)C1=C(C)NC(C)=C(C(=O)OCCN(C)Cc2ccccc2)C1c1cccc([N+](=O)[O-])c1 (stereo unspecified) [Nicardipine hydrochloride]"
  assay_endpoint: "growth yield"
  unit_symbol: "%"
  quantitative_result: 114
- compound: "O=C(O)C[C@H](O)C[C@H](O)/C=C/c1c(C2CC2)nc2ccccc2c1-c1ccc(F)cc1"
  assay_endpoint: "growth yield"
  unit_symbol: "%"
  quantitative_result: 2.94
- compound: "CCN(Cc1ccncc1)C(=O)C(CO)c1ccccc1 (stereo unspecified) [Tropicamide]"
  assay_endpoint: "growth yield"
  unit_symbol: "%"
  quantitative_result: 102
- compound: "CCOC(=O)C1=C(C)NC(C)=C(C(=O)OC)C1c1cccc([N+](=O)[O-])c1 (stereo unspecified)"
  assay_endpoint: "growth yield"
  unit_symbol: "%"
  quantitative_result: 89.9
- compound: "Cc1c(N(C)CS(=O)(=O)O)c(=O)n(-c2ccccc2)n1C"
  assay_endpoint: "growth yield"
  unit_symbol: "%"
  quantitative_result: 85.7
- compound: "Cc1cc(C)nc(NS(=O)(=O)c2ccc(N)cc2)n1 [Sulfamethazine sodium salt]"
  assay_endpoint: "growth yield"
  unit_symbol: "%"
  quantitative_result: 101
- compound: "CCCCN(CCCC)CCC(O)c1cc2c(Cl)cc(Cl)cc2c2cc(C(F)(F)F)ccc12 (stereo unspecified) [Halofantrine hydrochloride]"
  assay_endpoint: "growth yield"
  unit_symbol: "%"
  quantitative_result: 95.9
- compound: "COCCOC(=O)C1=C(C)NC(C)=C(C(=O)OC(C)C)C1c1cccc([N+](=O)[O-])c1 (stereo unspecified)"
  assay_endpoint: "growth yield"
  unit_symbol: "%"
  quantitative_result: 97.7
- compound: "O=C1C(O)=C([C@H]2CC[C@H](c3ccc(Cl)cc3)CC2)C(=O)c2ccccc21"
  assay_endpoint: "growth yield"
  unit_symbol: "%"
  quantitative_result: 97.4
- compound: "CCOC(=O)C1=C(C)NC(C)=C(C(=O)OC)C1c1cccc(Cl)c1Cl (stereo unspecified)"
  assay_endpoint: "growth yield"
  unit_symbol: "%"
  quantitative_result: 94.2

###

Quick reference: growth yield of the listed items.
# System: Trichoderma virens ATCC 9645
# assay_procedure: growth yield (OD600) relative to untreated control; higher = less growth inhibition
# reported_conditions: compound concentration: 100 uM; 72 h
Counter-ions that a name gives are not always drawn. In all, about 1,300 compounds went through this assay and about 75 (6%) showed an effect of 50% or more. The sample holds strong results, similar compounds and a random draw of the others, so the mix is not that of the screen.
assay_endpoint: growth yield (%)

- molecule: "N=C(N)NCc1cccc(I)c1 [Iobenguane sulfate]"
  test_system: "Trichoderma virens ATCC 9645"
  assay_endpoint: "growth yield"
  unit_symbol: "%"
  quantitative_result: 106
- molecule: "COc1cc2nc(N(C)CCCNC(=O)C3CCCO3)nc(N)c2cc1OC (configuration not stated) [Alfuzosin hydrochloride]"
  test_system: "Trichoderma virens ATCC 9645"
  assay_endpoint: "growth yield"
  unit_symbol: "%"
  quantitative_result: 105
- molecule: "CNC(=O)c1c(I)c(C(=O)NCC(=O)Nc2c(I)c(C(=O)O)c(I)c(C(=O)NCCO)c2I)c(I)c(N(C)C(C)=O)c1I [Ioxaglic acid]"
  test_system: "Trichoderma virens ATCC 9645"
  assay_endpoint: "growth yield"
  unit_symbol: "%"
  quantitative_result: 101
- molecule: "CCC(=O)OCC(=O)[C@@]1(OC(=O)CC)[C@@H](C)C[C@H]2[C@@H]3CCC4=CC(=O)C=C[C@]4(C)[C@@]3(Cl)[C@@H](O)C[C@@]21C [Beclomethasone dipropionate]"
  test_system: "Trichoderma virens ATCC 9645"
  assay_endpoint: "growth yield"
  unit_symbol: "%"
  quantitative_result: 98.7
- molecule: "CN1CCN(CCCN2c3ccccc3Sc3ccc(C(F)(F)F)cc32)CC1 [Trifluoperazine dihydrochloride]"
  test_system: "Trichoderma virens ATCC 9645"
  assay_endpoint: "growth yield"
  unit_symbol: "%"
  quantitative_result: 63.3
- molecule: "CN(C)CCCN1c2ccccc2Sc2ccccc21 [Promazine hydrochloride]"
  test_system: "Trichoderma virens ATCC 9645"
  assay_endpoint: "growth yield"
  unit_symbol: "%"
  quantitative_result: 95.6
- molecule: "OCCN1CCN(CCCN2c3ccccc3C=Cc3ccccc32)CC1 [Opipramol dihydrochloride]"
  test_system: "Trichoderma virens ATCC 9645"
  assay_endpoint: "growth yield"
  unit_symbol: "%"
  quantitative_result: 98.1
